# assayed.system: JAK1 (Homo sapiens)
# Sequence (P23458 850-1154 limits assumed): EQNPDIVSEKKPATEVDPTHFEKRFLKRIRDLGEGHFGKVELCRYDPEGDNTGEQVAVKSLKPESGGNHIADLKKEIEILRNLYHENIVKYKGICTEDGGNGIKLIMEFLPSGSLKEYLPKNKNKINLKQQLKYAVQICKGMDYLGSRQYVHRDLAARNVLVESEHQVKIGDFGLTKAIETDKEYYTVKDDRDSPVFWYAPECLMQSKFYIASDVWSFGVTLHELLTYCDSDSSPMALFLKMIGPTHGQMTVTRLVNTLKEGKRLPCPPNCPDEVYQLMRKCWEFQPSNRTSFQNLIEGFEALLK
# procedure.text: JAK1 kinase ADP-Glo assay (Example 60)
Reported values of IC50 for individual entries
Give your result in nM as a bare value.

# structure.notation, assayed.system, observation.type, quantitative.result
rows = [
    ("CCc1cc(O)c(F)cc1-c1cc(C)c2c(-c3nc4c([nH]3)CN(C(=O)C3CC3)C4)n[nH]c2c1", "JAK1 (Homo sapiens)", "IC50", 1.15),
    ("CCc1cc(O)c(F)cc1-c1ccc2c(-c3nc4c([nH]3)CN(C(=O)N3CCC3)C4)n[nH]c2c1", "JAK1 (Homo sapiens)", "IC50", 0.745),
    ("CCc1cc(O)c(F)cc1-c1ccc2c(-c3nc4c([nH]3)CN(C(=O)N3CCCC3)C4)n[nH]c2c1", "JAK1 (Homo sapiens)", "IC50", 0.53),
    ("CCC(=O)N1Cc2nc(-c3n[nH]c4cc(-c5cc(F)c(O)cc5CC)ccc34)[nH]c2C1", "JAK1 (Homo sapiens)", "IC50", 0.224),
    ("CCc1cc(O)c(F)cc1-c1ccc2c(-c3nc4c([nH]3)CN(C(=O)N3CCC(O)CC3)C4)n[nH]c2c1", "JAK1 (Homo sapiens)", "IC50", 0.178),
    ("CCc1cc(O)c(F)cc1-c1ccc2c(-c3nc4c([nH]3)CN(C(=O)N3CC(O)C3)C4)n[nH]c2c1", "JAK1 (Homo sapiens)", "IC50", 0.248),
]

Then this compound:
Task: Tell me measured IC50 for CCc1cc(O)c(F)cc1-c1ccc2c(-c3nc4c([nH]3)CN(C(=O)N3CC5(CNC5)C3)C4)n[nH]c2c1 please.
Output: 0.154
